Origin of values: patent US20250206837A1

- target: T1, mouse CD36-His overexpressed on stable F293 cells (mouse, UniProt Q08857 1-472)
- T1 construct: Gene segment from Sino Biological; also called F293/mCD36; mCD36; not shown: His tag
- T1 sequence (Q08857 whole entry): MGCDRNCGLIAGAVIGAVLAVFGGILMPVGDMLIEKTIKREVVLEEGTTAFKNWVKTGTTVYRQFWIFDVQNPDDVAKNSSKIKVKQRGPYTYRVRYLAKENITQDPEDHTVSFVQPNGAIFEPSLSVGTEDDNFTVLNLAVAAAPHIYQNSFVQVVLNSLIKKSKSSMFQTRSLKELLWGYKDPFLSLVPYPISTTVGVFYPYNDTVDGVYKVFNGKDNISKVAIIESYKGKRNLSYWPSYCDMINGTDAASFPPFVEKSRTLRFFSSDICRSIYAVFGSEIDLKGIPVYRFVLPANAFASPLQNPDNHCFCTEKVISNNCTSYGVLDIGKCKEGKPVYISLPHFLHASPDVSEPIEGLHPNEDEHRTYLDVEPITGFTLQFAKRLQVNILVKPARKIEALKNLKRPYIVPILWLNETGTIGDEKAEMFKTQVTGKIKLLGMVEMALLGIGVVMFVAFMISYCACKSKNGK
- procedure.summary: flow cytometry, F293 cells overexpressing mouse CD36
- Source text: After washing with FACS buffer (2% FBS in PBS), the cells were stained with anti-human IgG-Alexa Fluor 647 and analyzed by Attune NxT Flow Cytometer (Thermo Scientific).

{"binder": "117_DA57D (antibody, V domains shown, full-length IgG, human kappa) VH: EVQLVESGGGLVQPGGSLRLSCAASGFTIDAFGIHWVRQAPGKGLEWVAWIAPYGGDTYYADSVKGRFTISADTSKNTAYLQMNSLRAEDTAVYYCARSFFGYFDYWGQGTLVTVSS VL: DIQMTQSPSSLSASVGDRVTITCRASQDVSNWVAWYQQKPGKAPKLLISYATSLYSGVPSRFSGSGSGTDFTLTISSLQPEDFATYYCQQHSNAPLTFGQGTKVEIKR", "readout.units": "µg/mL", "EC50": 0.271}
{"binder": "117_57EE (antibody, V domains shown, full-length IgG, human kappa) VH: EVQLVESGGGLVQPGGSLRLSCAASGFTISSFGIHWVRQAPGKGLEWVAWIAPYGGEEYYADSVKGRFTISADTSKNTAYLQMNSLRAEDTAVYYCARSFFGYFDYWGQGTLVTVSS VL: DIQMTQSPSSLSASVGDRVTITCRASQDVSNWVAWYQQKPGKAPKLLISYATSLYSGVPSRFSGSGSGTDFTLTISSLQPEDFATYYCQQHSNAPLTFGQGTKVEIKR", "readout.units": "µg/mL", "EC50": 0.319}
{"binder": "117_30DE (antibody, V domains shown, full-length IgG, human kappa) VH: EVQLVESGGGLVQPGGSLRLSCAASGFTIDSFGIHWVRQAPGKGLEWVAWIAPYGGETYYADSVKGRFTISADTSKNTAYLQMNSLRAEDTAVYYCARSFFGYFDYWGQGTLVTVSS VL: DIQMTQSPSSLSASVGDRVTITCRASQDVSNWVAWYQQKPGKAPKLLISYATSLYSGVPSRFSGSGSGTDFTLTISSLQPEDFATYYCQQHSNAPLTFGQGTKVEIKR", "readout.units": "µg/mL", "EC50": 0.342}
